Biological target: HLA-A*0301 (purified HLA class I molecule) (human)
Experiment: competition vs 125I standard peptide, purified HLA
Give relative binding ratio for every item shown.

binder | recordedMeasurement
HSCVDLDDK [HER2/neu peptide, position 632, 9 amino acids] | -0.0002 ratio (IC50 standard/IC50 test)
MIDSECRPR [HER2/neu peptide, position 960, 9 amino acids] | 0.0017 ratio (IC50 standard/IC50 test)
GVGSPYVSR [HER2/neu peptide, position 776, 9 amino acids] | 0.001 ratio (IC50 standard/IC50 test)

Inquiry: So what's the measured relative binding ratio for this one? HADGGKVPIK [HER2/neu peptide, position 878, 10 amino acids]
Reply text: 0.0003 ratio (IC50 standard/IC50 test)
